# assay-explanation: reduced viability of SK-BR-3 breast cancer cells – cell-based, 24 h, human, pilot screen (AID 572);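 further: compound exposure lasted between 18 and 24 h rather than exactly 24 h; 100% = carrier-treated control wells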
# condition-info: SK-BR-3 viability, CellTiter-Glo luminescence, at 10 µM, hits give low values
Form field: viability (one value per entry).
Give a bare numeral; the unit % is implied.

Answered cases to consult:
[
  {
    "compound": "CCOC(=O)c1sc2nc(NC(=O)C3CCCCC3)sc2c1C",
    "viability, %": 95.5
  },
  {
    "compound": "COC(=O)C1=C(C)Nc2ncnn2C1c1ccc(C)o1 (stereo unspecified)",
    "viability, %": 103
  },
  {
    "compound": "COCCN(CCOC)c1ncnc2c1cnn2-c1ccccc1",
    "viability, %": 112
  },
  {
    "compound": "CCOCCCNC(=O)Cn1ncc2c(=O)oc3ccccc3c21",
    "viability, %": 95
  },
  {
    "compound": "O=C(CN1C(=O)c2ccccc2S1(=O)=O)NCc1ccccc1Cl",
    "viability, %": 90.5
  }
]

Now consider the entry below.
Input: For the compound CSCCC(N=CC1=C(O)CC(C)(C)CC1=O)C(=O)O (stereo unspecified) , give its measured viability value.
Output: 100

* * *

Listed next: entries and their corresponding viability.
# assay-explanation: viability of HCT116 without oncogenic beta-catenin – human colon tumor cells, pilot screen (AID 823);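 further: 0% = wells killed by 20 µM Hyamine and 100% = untreated DMSO cell wells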
# condition-info: HCT116 beta-catenin knockout viability, CellTiter-Glo, 60 h; at 10 µM; hits give low values
Records with an inconclusive call do not appear.
Your answer should be a plain number; it is taken to be in %.

Would you please look over these solved cases?
[
  {
    "compound": "CCOC(=O)c1sc2nc(NC(=O)C(C)(C)C)sc2c1C",
    "readout-name": "viability",
    "unit-label": "%",
    "numeric-readout": 74.5
  },
  {
    "compound": "O=C(CN1CCN(Cc2ccc(F)cc2)C1=O)NCc1cccs1",
    "readout-name": "viability",
    "unit-label": "%",
    "numeric-readout": 99.5
  },
  {
    "compound": "COCCn1c(SCC(=O)N2CCc3ccccc32)nc2c(c1=O)SC(C)C2 (stereo not drawn)",
    "readout-name": "viability",
    "unit-label": "%",
    "numeric-readout": 94.1
  },
  {
    "compound": "Cc1cc(C)n(C(=O)CCN2C(=O)c3ccccc3C2=O)n1",
    "readout-name": "viability",
    "unit-label": "%",
    "numeric-readout": 94.9
  }
]

Input: Supply recorded viability for COc1ccccc1OCc1nc(C#N)c(N2CC(C)CC(C)C2)o1 (stereo not drawn) here.
Output: 71.7

Input: Using known records, supply viability for `O=C(CN1CCOc2ccccc21)NCc1ccccc1`
Output: 98.2

Input: Give the value of viability reported for the following: `Fc1ccc(-c2ccc(-c3nn4c(-c5ccco5)nnc4s3)o2)cc1`
Output: 97.1

Input: Read off the recorded viability for `COc1ccc(-c2nnc(SCC(=O)N3CCOCC3)o2)cc1OC`
Output: 103

Input: Note viability for the compound shown: `CCOc1ccc2nc(NC(=O)c3ccoc3C)sc2c1`
Output: 19.1

* * *

# assay-explanation: growth suppression of yeast trafficking mutant, preliminary HTS, modulators of trafficking downstream of Golgi apparatus project, 1536-format plate, OD 615 nm (AID 637)
# condition-info: yeast transport mutant growth, absorbance 615 nm, 18 h; hits give high values
readout-name: inhibition (%)
Report as a plain number; the unit % is understood.

The examples below pair each entry with its known result.
[
  {
    "compound": "COc1ccc(Nc2ncnc3c2cnn3-c2ccccc2)cc1OC",
    "readout-name": "inhibition",
    "numeric-readout": -9.33
  },
  {
    "compound": "CCOc1ccc2nc(N3CCC(C(=O)N4CCN(C5CCCCC5)CC4)CC3)sc2c1",
    "readout-name": "inhibition",
    "numeric-readout": -4.1
  },
  {
    "compound": "COC(=O)C(C#N)C(=C1C(=O)CC(C)(C)CC1=O)c1ccc(O)cc1 (stereo unspecified)",
    "readout-name": "inhibition",
    "numeric-readout": -1.17
  },
  {
    "compound": "CCOC(=O)Cc1nnc(NC(=O)c2ccccc2OCC)s1",
    "readout-name": "inhibition",
    "numeric-readout": -4.26
  },
  {
    "compound": "COc1ccc(C2CC(c3ccc(Cl)cc3Cl)Nc3nc(N)nn32)cc1 (stereo unspecified)",
    "readout-name": "inhibition",
    "numeric-readout": -0.5
  }
]

Input: Consider the compound Cc1nnc(NC(=O)CSc2nc3c(c(=O)n2C)SC(C)C3)s1 (stereo unspecified) . State its measured inhibition.
Output: 4.17

* * *

# assay-explanation: S. cerevisiae growth inhibition in permissive medium (OD615), pilot counter-assay for S. cerevisiae lifespan shortening project, permissive growth control (AID 705)
# condition-info: OD615, 24 h, at 10 µM, hits give high values
readout-name: growth inhibition (%)
Use % as the unit, but write only the number.

Before answering, review these 5 worked examples.
[
  {
    "compound": "C1CCC2(CC1)C1=C(CCCC1)Nc1nnnn12",
    "numeric-readout": -4.35
  },
  {
    "compound": "CC1NC2(C(=O)N(Cc3ccccc3)c3ccccc32)C2C(=O)N(c3ccccc3)C(=O)C12 (stereo not given)",
    "numeric-readout": -5.06
  },
  {
    "compound": "CCCn1c(=O)c(C(=O)NCc2ccccn2)c(O)c2ccccc21",
    "numeric-readout": 4.69
  },
  {
    "compound": "CCOC(=O)N1CCC(N2CC34C=CC(O3)C(C(=O)Nc3ccc(C)cc3)C4C2=O)CC1 (stereo not given)",
    "numeric-readout": -0.385
  },
  {
    "compound": "O=C1CC(c2ccccc2)CC(O)=C1C=NCCN1CCOCC1 (stereo not given)",
    "numeric-readout": -4.59
  }
]

Input: Report growth inhibition for CCOC(=O)N1CCN(CC(O)c2ccc3cc[nH]c3c2)CC1 (stereo not given)
Output: -10.8

Input: Give a short answer stating reported growth inhibition for `COc1ccc(N2Cc3cccc(C(=O)O)c3C2=O)cc1` .
Output: -17.1

Input: Look up and report measured growth inhibition for this entry: `CCOc1ccc(-c2nnc(-c3ccco3)o2)cc1`
Output: -1.61

Input: Given the compound `CCCCN(CC)CCCNC(=O)c1cc2c(=O)n(C)c3ccccc3c2n1C` , write its reported growth inhibition.
Output: -8.88

Input: Identify the reported growth inhibition for the following entry. O=C(NCc1ccccn1)C1CCC(=O)N1C1CCCC1 (stereo not given)
Output: -0.9

Input: Indicate its recorded growth inhibition; the compound in question is `Cc1occc1C(=O)N1CCN(c2ncccn2)CC1`
Output: -15.2

Input: In one line, give reported growth inhibition of the entry CCOC(=O)N1CCC(N2C(=O)c3ccccc3C2Nc2cc(Cl)c(OC)cc2OC)CC1 (stereo not given) .
Output: 3.33

Input: Indicate its recorded growth inhibition; the compound in question is `COc1ccc(-c2nc(CSCC(=O)NCc3ccc4c(c3)OCO4)c(C)o2)cc1OC`
Output: -13.4

Input: Given `COc1ccc(C(=O)Oc2c(CN3CCOCC3)cc(Cl)c3cccnc23)cc1OC` , respond with its growth inhibition.
Output: -12.6

* * *

# assay-explanation: viability of HCT116 without oncogenic beta-catenin – human colon tumor cells, pilot screen (AID 823);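 further: 0% = wells killed by 20 µM Hyamine and 100% = untreated DMSO cell wells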
# condition-info: HCT116 beta-catenin knockout viability, CellTiter-Glo, 60 h; at 10 µM; hits give low values
Inconclusive results are not listed.
viability listing for selected compounds.
Give your result in % as a bare value.

Input: Identify measured viability corresponding to `CCOc1ccc(N(CC(=O)NCc2cccs2)S(=O)(=O)c2c(C)noc2C)cc1`
Output: 95.1

Input: Return reported viability. Input compound: COc1ccc(OC)c(C2=NOC(C(=O)Nc3cc(C)nn3-c3ccccc3)C2)c1 (stereo not given)
Output: 94.2

Input: Supply measured viability of `CCOc1ccc(N(CC(=O)Nc2cccc(Cl)c2)S(=O)(=O)c2c(C)noc2C)cc1` in your reply.
Output: 39.2

Input: Note viability for the compound shown: `O=C(Nc1ccccc1)c1cnc2n(c1=O)CCS2`
Output: 104

Input: Indicate the recorded viability value for this compound: O=C(NCC1COc2ccccc2O1)C1CCCN(S(=O)(=O)c2cccc3cccnc23)C1 (stereo not given)
Output: 71.8

* * *

The molecules listed here are annotated with their growth inhibition.
# assay-explanation: S. cerevisiae growth inhibition in permissive medium (OD615), pilot counter-assay for S. cerevisiae lifespan shortening project, permissive growth control (AID 705)
# condition-info: OD615, 24 h, at 10 µM, hits give high values
# number only, unit % dropped from output

[
  {
    "molecule": "COC(=O)CN1C(=O)C(O)(CC(=O)c2ccc(C)cc2)c2cc(Br)ccc21 (centres undefined)",
    "unit-label": "%",
    "growth inhibition": -15.5
  }
]

Input: Given the molecule `N#C/C(C(=O)c1ccccc1)=C1/CCCN1` , write its reported growth inhibition.
Output: -10.5

Input: Report growth inhibition for `O=C(CS(=O)(=O)Cc1ccccc1)Nc1nc2ccccc2s1`
Output: -13.1

Input: Return value of growth inhibition for input `CCOC(=O)Nc1ccc2c(c1)N(C(=O)OCCN(C)C)c1ccccc1CC2` , no commentary.
Output: -10.3

Input: Item `c1ccc(Cn2nnc3c(N4CCCCCC4)ncnc32)cc1` : provide growth inhibition
Output: -13

Input: Name the recorded growth inhibition of the item `Cc1cc2ccccc2n1CCNC(=O)C1CC1` in your answer.
Output: -2.51

Values from PubChem BioAssay
